FYI, the data here is from ChEMBL document CHEMBL3616411.

Assay notes: in vitro
Setup conditions: human, HEK293 cells (CC50) versus U937 cells (IC50)
Measurement kind: selectivity ratio
Give a plain numeric answer without units written out.

Task: # selectivity ratio lookup, item Cc1ccc(NC(=O)c2ccc(CN3CCN(C)CC3)cc2)cc1Nc1nccc(-c2cccnc2)n1
Output: 0.44

----------
Target of assay: Histone deacetylase 4 (Homo sapiens, UniProt P56524)
Sequence (P56524 whole entry): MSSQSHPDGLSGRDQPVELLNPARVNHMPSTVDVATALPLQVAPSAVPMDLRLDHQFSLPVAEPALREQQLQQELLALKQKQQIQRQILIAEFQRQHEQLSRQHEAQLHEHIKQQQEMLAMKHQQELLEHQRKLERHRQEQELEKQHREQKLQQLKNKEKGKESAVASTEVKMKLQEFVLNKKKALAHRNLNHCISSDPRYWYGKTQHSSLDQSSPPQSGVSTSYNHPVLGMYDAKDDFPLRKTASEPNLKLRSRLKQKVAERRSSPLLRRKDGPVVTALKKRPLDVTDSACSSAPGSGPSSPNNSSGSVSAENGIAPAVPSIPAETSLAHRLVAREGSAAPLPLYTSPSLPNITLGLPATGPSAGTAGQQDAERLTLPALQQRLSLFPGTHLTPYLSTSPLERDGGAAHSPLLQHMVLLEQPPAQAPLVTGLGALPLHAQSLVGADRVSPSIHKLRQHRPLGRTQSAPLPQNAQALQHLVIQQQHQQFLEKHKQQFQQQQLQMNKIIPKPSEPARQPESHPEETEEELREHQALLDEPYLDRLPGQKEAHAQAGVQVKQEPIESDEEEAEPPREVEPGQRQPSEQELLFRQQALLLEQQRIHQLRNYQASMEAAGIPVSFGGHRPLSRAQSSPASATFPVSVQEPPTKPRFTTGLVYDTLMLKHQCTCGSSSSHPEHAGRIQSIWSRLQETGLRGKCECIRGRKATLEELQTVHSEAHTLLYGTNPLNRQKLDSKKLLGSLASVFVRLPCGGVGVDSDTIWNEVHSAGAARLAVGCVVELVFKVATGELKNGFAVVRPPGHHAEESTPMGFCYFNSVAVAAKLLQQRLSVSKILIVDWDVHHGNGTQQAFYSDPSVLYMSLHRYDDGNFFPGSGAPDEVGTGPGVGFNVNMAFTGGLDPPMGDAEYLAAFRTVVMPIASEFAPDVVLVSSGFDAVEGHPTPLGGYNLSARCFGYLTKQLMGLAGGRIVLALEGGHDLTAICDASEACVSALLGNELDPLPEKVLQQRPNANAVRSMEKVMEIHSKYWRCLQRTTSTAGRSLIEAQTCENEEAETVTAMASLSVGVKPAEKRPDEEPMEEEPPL
IC50: recorded values
Give just the numeric value; µM need not be written.

Previously resolved entries follow.
O=C(N[C@@H](C(=O)O)c1ccccc1)c1cccc(=S)n1O    64
O=C(O)c1cccc(=S)n1O    71

Please turn your attention to the following entry.
Task: Recorded IC50 for C[C@@H](NC(=O)c1cccc(=S)n1O)C(=O)O with Histone deacetylase 4 (Homo sapiens, UniProt P56524), please?
Output: 100

----------
Assay notes: in vitro
Setup conditions: human
Measurement kind: selectivity ratio
Give a plain numeric answer without units written out.

Cc1ccc(NC(=O)c2ccc(CN3CCN(C)CC3)cc2)cc1Nc1nccc(-c2cccnc2)n1 [IMATINIB]    7.6

Task: # selectivity ratio lookup, item Cc1nc(Nc2ncc(C(=O)Nc3c(C)cccc3Cl)s2)cc(N2CCN(CCO)CC2)n1 [DASATINIB]
Output: 8.4

----------
IC50: recorded values
System: K562
Assay notes: cells
Assay type: functional, cell-based
Setup conditions: Homo sapiens
Give just the numeric value; µM need not be written.

C[C@@H](NC(=O)c1cccc(=S)n1O)C(=O)O    3.7

Please turn your attention to the following entry.
Task: # IC50 lookup, item Cc1nc(Nc2ncc(C(=O)Nc3c(C)cccc3Cl)s2)cc(N2CCN(CCO)CC2)n1 [DASATINIB]
Output: 0.08

----------
Assay notes: Cytotoxicity against HEK293 cells assessed as reduction in cell viability
Format: cell-based
Setup conditions: human
Measurement kind: CC50 (µM)
Give just the numeric value; µM need not be written.

Previously resolved entries follow.
O=C(CCCCCCC(=O)Nc1ccccc1)NO [VORINOSTAT]    100
O=C(N[C@@H](C(=O)O)c1ccccc1)c1cccc(=S)n1O    76
Cc1nc(Nc2ncc(C(=O)Nc3c(C)cccc3Cl)s2)cc(N2CCN(CCO)CC2)n1 [DASATINIB]    16
Cc1ccc(NC(=O)c2ccc(CN3CCN(C)CC3)cc2)cc1Nc1nccc(-c2cccnc2)n1 [IMATINIB]    8.4

Task: # CC50 lookup, item O=C(O)c1cccc(=S)n1O
Output: 97

----------
pIC50: recorded values
System: U-937
Assay notes: cells
Type: functional, cell-based
Setup conditions: Homo sapiens
pIC50 here is simply -log10 of the concentration when that concentration is written in mol/L.

Previously resolved entries follow.
C[C@@H](NC(=O)c1cccc(=S)n1O)C(=O)O    4.60
Cc1ccc(NC(=O)c2ccc(CN3CCN(C)CC3)cc2)cc1Nc1nccc(-c2cccnc2)n1    4.72

Task: # pIC50 lookup, item O=C(N[C@@H](C(=O)O)c1ccccc1)c1cccc(=S)n1O
Output: 4.24

Task: # pIC50 lookup, item O=C(O)c1cccc(=S)n1O
Output: 4.12

----------
pIC50: recorded values
Target of assay: Histone deacetylase 8 (Homo sapiens, UniProt Q9BY41)
Sequence (Q9BY41 whole entry): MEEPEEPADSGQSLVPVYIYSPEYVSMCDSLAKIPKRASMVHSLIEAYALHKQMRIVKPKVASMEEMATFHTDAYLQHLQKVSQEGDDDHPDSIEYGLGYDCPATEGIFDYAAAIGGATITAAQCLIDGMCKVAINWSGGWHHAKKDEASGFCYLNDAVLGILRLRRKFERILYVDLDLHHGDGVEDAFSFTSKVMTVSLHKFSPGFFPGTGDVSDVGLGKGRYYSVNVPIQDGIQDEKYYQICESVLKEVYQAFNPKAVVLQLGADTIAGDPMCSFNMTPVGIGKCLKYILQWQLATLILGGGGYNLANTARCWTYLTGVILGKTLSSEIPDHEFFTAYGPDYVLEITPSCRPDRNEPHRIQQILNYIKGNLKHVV
pIC50 here is simply -log10 of the concentration when that concentration is written in mol/L.

Previously resolved entries follow.
C[C@@H](NC(=O)c1cccc(=S)n1O)C(=O)O    6.01
O=C(N[C@@H](C(=O)O)c1ccccc1)c1cccc(=S)n1O    5.92

Please turn your attention to the following entry.
Task: # pIC50 lookup, item O=C(O)c1cccc(=S)n1O
Output: 5.48

----------
selectivity ratio: recorded values
Assay notes: in vitro
Setup conditions: human, HEK293 cells (CC50) versus THP1 cells (IC50)

Cc1ccc(NC(=O)c2ccc(CN3CCN(C)CC3)cc2)cc1Nc1nccc(-c2cccnc2)n1    0.34

Task: # selectivity ratio lookup, item Cc1nc(Nc2ncc(C(=O)Nc3c(C)cccc3Cl)s2)cc(N2CCN(CCO)CC2)n1
Output: 2.6

----------
Target of assay: Histone deacetylase 1 (Homo sapiens)
Sequence (Q13547 whole entry): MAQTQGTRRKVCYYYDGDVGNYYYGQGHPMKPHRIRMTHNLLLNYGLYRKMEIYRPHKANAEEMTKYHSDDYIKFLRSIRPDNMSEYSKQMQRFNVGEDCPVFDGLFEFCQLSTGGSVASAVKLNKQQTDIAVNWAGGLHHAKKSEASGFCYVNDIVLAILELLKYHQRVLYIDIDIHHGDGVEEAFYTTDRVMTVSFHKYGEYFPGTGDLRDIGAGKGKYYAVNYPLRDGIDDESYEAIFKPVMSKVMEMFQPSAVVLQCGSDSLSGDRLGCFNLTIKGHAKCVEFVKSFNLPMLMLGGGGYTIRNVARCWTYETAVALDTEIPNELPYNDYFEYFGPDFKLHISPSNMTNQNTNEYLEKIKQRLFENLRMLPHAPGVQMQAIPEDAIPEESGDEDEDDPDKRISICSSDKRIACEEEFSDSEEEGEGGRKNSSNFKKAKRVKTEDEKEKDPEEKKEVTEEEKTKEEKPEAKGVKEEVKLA
IC50: recorded values
Give just the numeric value; µM need not be written.

C[C@@H](NC(=O)c1cccc(=S)n1O)C(=O)O    270
O=C(N[C@@H](C(=O)O)c1ccccc1)c1cccc(=S)n1O    93

Please turn your attention to the following entry.
Task: Recorded IC50 for O=C(O)c1cccc(=S)n1O with Histone deacetylase 1 (Homo sapiens), please?
Output: 43

----------
System: K562
Assay notes: cells
Type: functional, cell-based
Setup conditions: Homo sapiens
Measurement kind: pIC50
pIC50 here is simply -log10 of the concentration when that concentration is written in mol/L.

Previously resolved entries follow.
Cc1ccc(NC(=O)c2ccc(CN3CCN(C)CC3)cc2)cc1Nc1nccc(-c2cccnc2)n1 [IMATINIB]    7.22
O=C(O)c1cccc(=S)n1O    4.74

Please turn your attention to the following entry.
Task: # pIC50 lookup, item O=C(N[C@@H](C(=O)O)c1ccccc1)c1cccc(=S)n1O
Output: 5.06
